# Procedure Text: Folding and unfolding kinetics (Chevron plot, stopped-flow CD, GuHCl)
# Format: physicochemical
# Protocol Conditions: in reference to WT*; positive value = decrease in folding activation barrier
Quick reference: ΔΔG‡-D of the listed items.
Give a bare numeral; the unit kcal/mol is implied.

Answered cases to consult:
[
  {
    "Molecule": "SYM5: FGF-1 core mutant Leu44→Phe/Leu73→Val/Val109→Leu/Leu111→Ile/Cys117→Val (protein, UniProt P05230 16-155, looked up, variant L44F L73V V109L L111I C117V) Fibroblast growth factor 1: FNLPPGNYKKPKLLYCSNGGHFLRILPDGTVDGTRDRSDQHIQFQLSAESVGEVYIKSTETGQYLAMDTDGLVYGSQTPNEECLFLERLEENHYNTYISKKHAEKNWFLGIKKNGSVKRGPRTHYGQKAILFLPLPVSSD",
    "ΔΔG‡-D, kcal/mol": -0.151
  },
  {
    "Molecule": "SYM6/ΔΔ: SYM6 FGF-1 mutant plus both Δ104-106 and Δ120-122 deletion mutations, SEQ ID NO: 1 (protein, Human FGF-1 mutant SYM6DD) FNLPPGNYKKPKLLYCSNGGHFLRILPDGTVDGTRDRSDQHIQFQLSAESVGEVYIKSTETGQYLAIDTDGLVYGSQTPNEECLFLERLEENHYNTYISKKHGWFLGIKKNGSVKGTHYGQKAILFLPLPVSSD",
    "ΔΔG‡-D, kcal/mol": 1.84
  },
  {
    "Molecule": "SYM6/Δ120-122: SYM6 FGF-1 mutant plus Arg119→Gly/ΔGly120/ΔPro121/ΔArg122 (protein, UniProt P05230 16-155, looked up, variant L44F M67I L73V V109L L111I C117V R119G del120-122) Fibroblast growth factor 1: FNLPPGNYKKPKLLYCSNGGHFLRILPDGTVDGTRDRSDQHIQFQLSAESVGEVYIKSTETGQYLAIDTDGLVYGSQTPNEECLFLERLEENHYNTYISKKHAEKNWFLGIKKNGSVKGTHYGQKAILFLPLPVSSD",
    "ΔΔG‡-D, kcal/mol": 0.98
  }
]

Next:
// returns reported ΔΔG‡-D for input SYM5/Δ104-106: SYM5 FGF-1 mutant plus Ala103→Gly/ΔGlu104/ΔLys105/ΔAsn106 (protein, UniProt P05230 16-155, looked up, variant L44F L73V V109L L111I C117V A103G del104-106) Fibroblast growth factor 1: FNLPPGNYKKPKLLYCSNGGHFLRILPDGTVDGTRDRSDQHIQFQLSAESVGEVYIKSTETGQYLAMDTDGLVYGSQTPNEECLFLERLEENHYNTYISKKHGWFLGIKKNGSVKRGPRTHYGQKAILFLPLPVSSD
-0.299

src = patent US7790682B1
